# ASSAY TARGET: UniProt:Q969S8
# Sequence (Q969S8 whole entry): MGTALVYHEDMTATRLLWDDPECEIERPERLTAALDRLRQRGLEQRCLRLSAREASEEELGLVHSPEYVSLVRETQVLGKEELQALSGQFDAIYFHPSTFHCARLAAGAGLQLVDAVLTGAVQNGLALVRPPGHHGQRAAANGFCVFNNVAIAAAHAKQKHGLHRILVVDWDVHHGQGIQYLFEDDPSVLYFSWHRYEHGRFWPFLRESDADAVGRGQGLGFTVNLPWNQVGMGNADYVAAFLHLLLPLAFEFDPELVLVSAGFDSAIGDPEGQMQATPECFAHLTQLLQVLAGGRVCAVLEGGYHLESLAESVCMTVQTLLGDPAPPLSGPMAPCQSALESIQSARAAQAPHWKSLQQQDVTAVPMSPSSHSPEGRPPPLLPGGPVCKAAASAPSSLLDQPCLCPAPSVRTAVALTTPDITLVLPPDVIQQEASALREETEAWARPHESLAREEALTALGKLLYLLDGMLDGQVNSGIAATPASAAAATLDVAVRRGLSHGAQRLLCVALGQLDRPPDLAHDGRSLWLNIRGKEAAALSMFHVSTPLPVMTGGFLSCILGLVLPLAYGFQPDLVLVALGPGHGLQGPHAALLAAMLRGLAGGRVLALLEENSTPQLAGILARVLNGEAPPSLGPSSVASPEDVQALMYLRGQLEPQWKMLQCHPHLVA
# METHOD SUMMARY: Inhibition of HDAC10 using Fluor-de-Lys as substrate at 100 uM by spectrofluorometry
The source made the active and inactive calls. The rule behind the calls is not given here.
VALUE KIND: inhibition

O=C(NC(=S)Nc1ccccc1)c1ccccc1F ... inactive
O=C(NC(=S)NCc1ccccc1)c1ccccc1F ... 5%
O=C(NC(=S)NCc1ccc(C(F)(F)F)cc1)c1ccccc1 ... inactive

* * *

A collection of molecules and their measured fold change (FC)
# ASSAY TARGET: Histone deacetylase 8 (Homo sapiens) (UniProt Q9BY41)
# Sequence (Q9BY41 whole entry): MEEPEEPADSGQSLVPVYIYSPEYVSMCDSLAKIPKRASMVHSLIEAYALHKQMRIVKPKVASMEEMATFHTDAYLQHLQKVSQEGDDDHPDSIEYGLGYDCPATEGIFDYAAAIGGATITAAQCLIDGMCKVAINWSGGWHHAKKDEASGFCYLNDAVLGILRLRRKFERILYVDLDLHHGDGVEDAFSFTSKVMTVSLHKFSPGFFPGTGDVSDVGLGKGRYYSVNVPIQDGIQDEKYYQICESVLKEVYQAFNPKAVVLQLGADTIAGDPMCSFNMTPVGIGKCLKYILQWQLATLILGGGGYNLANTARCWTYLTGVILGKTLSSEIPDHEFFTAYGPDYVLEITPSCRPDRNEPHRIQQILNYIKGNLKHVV
# METHOD SUMMARY: Activation of recombinant human HDAC8 assessed as ratio of the initial rate of reaction in the absence and presence of compound using Fluor-de-Lys as substrate at 10 uM by spectrofluorometry
The reply should be a number, written without any unit.

O=C(NC(=S)NCc1cc(C(F)(F)F)cc(C(F)(F)F)c1)c1ccccc1 ... 1.1

// fetch Histone deacetylase 8 (Homo sapiens) (UniProt Q9BY41) fold change (FC) for `O=C(NC(=S)NCc1cccs1)c1ccccc1`
3

// fetch Histone deacetylase 8 (Homo sapiens) (UniProt Q9BY41) fold change (FC) for `O=C(NC(=S)NCCc1ccccc1)c1ccccc1`
2
